- System: human APOE RNA
- TEST_METHOD_NOTES: Duration of action study in APOE C57BL/6NTac-Apoeem7250 knock-in mice (Example 16)
- Assay type: in vivo
- CONDITION_NOTES: cortex; 300 μg ICV; 140 days post-dose
Strand notation (5' to 3'): a small letter for the sugar, then the base; units joined by * are phosphorothioate-linked, units joined directly phosphodiester-linked; [ ] holds rarer units or linkages, { } end groups; capitals alone tell only the bases. [ms] = mesyl phosphoramidate linkage; k = constrained ethyl (cEt); [5mC] = 5-methylcytosine; d = 2'-deoxy (DNA)
RECORDED_METRIC: APOE RNA (% control) Cortex
Give the value in % control but do not write % control after it.

## Task Suppose we examine the substance 1753989 (k[5mC]*dT[ms]kT*dG[ms]kG*dT*dG[ms]dA[ms]dA[ms]dT*d[5mC]*dT*dT*dT*dA[ms]kT*dT[ms]kA*dA[ms]kA; antisense) [Compound 1753989] ; what APOE RNA (% control) Cortex value has been reported?
## Result 72

## Task Please report the recorded APOE RNA (% control) Cortex for 1746803 (k[5mC]*dT[ms]dT[ms]kG*dG[ms]kT*dG[ms]dA[ms]dA[ms]dT*d[5mC]*dT*dT*dT*dA[ms]dT*kT*dA[ms]kA*kA; antisense) [Compound 1746803] .
## Result 73

## Task Form field: reported APOE RNA (% control) Cortex of 1746800 (k[5mC]*dT[ms]kT*dG[ms]dG[ms]kT*dG[ms]dA[ms]dA[ms]dT*d[5mC]*dT*dT*dT*dA[ms]dT*kT*dA[ms]kA*kA; antisense) [Compound 1746800]
## Result 75

###

- System: human APOE RNA
- TEST_METHOD_NOTES: Dose-dependent inhibition of human APOE RNA in HepG2 cells, electroporation, 50,000 cells per well, RT-PCR normalized to GAPDH (Example 4, Tables 8-10)
- Type: cell-based
- CONDITION_NOTES: HepG2 cells, electroporation, 24-hour treatment, 1,280 nM, Table 8
- Procedure: Modified oligonucleotides selected from the examples above were tested at various doses in HepG2 cells. The modified oligonucleotides were tested in a series of experiments that had the same culture conditions. Each experiment is identified in separate tables below. HepG2 cells plated at a density of 50,000 cells per well were treated by electroporation with various concentrations of modified oligonucleotide as specified in the tables below. […]
Strand notation (5' to 3'): a small letter for the sugar, then the base; units joined by * are phosphorothioate-linked, units joined directly phosphodiester-linked; [ ] holds rarer units or linkages, { } end groups; capitals alone tell only the bases. [ms] = mesyl phosphoramidate linkage; e = 2'-O-(2-methoxyethyl) (MOE); k = constrained ethyl (cEt); [5mC] = 5-methylcytosine; d = 2'-deoxy (DNA)
Please go through the items and note down their APOE RNA (% UTC) 1,280 nM.
Write it as a number; the unit % UTC goes unstated.

## Task Find the recorded APOE RNA (% UTC) 1,280 nM belonging to 1785604: modified oligonucleotide complementary to human APOE RNA (k[5mC]*dT[ms]dT[ms]kG*dG[ms]kT*dG[ms]dA[ms]dA*dT*d[5mC]*dT*dT*dT*dA*dT*kT*kA*dA[ms]kA; antisense) [compound 1785604] and report it.
## Result 44

## Task // lookup APOE RNA (% UTC) 1,280 nM for 1778114: modified oligonucleotide complementary to human APOE RNA (eA*e[5mC]eTeTkG*kG*dT*dG[ms]dA[ms]dA*dT*d[5mC]*dT*dT*dT*dA[ms]eTeT*eA*eA; antisense) [compound 1778114]
## Result 42

## Task Entry 1778111: modified oligonucleotide complementary to human APOE RNA (eA*e[5mC]eTeTeG*kG*dT*dG[ms]dA[ms]dA*dT*d[5mC]*dT*dT*dT*dA[ms]eTeT*eA*eA; antisense) [compound 1778111] has what APOE RNA (% UTC) 1,280 nM?
## Result 27

## Task // returns reported APOE RNA (% UTC) 1,280 nM for input 1778131: modified oligonucleotide complementary to human APOE RNA (eA*e[5mC]eTeTeGkG*dT*dG[ms]dA[ms]dA*dT*d[5mC]*dT*dT*dT*dA[ms]kTkT*eA*eA; antisense) [compound 1778131]
## Result 35
